# System: Caco2 cells
# measurement-notes: Proliferation assay (Caco2 cell line)
# Type: cell-based
# protocol-conditions: Homo sapiens, Caco-2, 96 h, read-out: Biological Assay 2: Proliferation assay (Caco2 cell line) median IC50
# Procedure: Cultivated tumor cells (cells were ordered from ATCC, except HeLa-MaTu and HeLa-MaTu-ADR, which were ordered from EPO-GmbH, Berlin) were plated at a density of 1000 to 5000 cells/well, depending on the growth rate of the respective cell line, in a 96-well multititer plate in 200 μL of their respective growth medium supplemented 10% fetal calf serum. […] The IC50 values were determined by means of a 4 parameter fit using the company's own software.
IC50 values for the compounds below.
Numeric only. Scale: nM

Examples with their reported IC50 follow.
COc1cnc(-c2nn(Cc3c(Cl)cc(OC(F)(F)F)cc3Cl)c3ccccc23)nc1Nc1ccncc1 [Example 2-26-1] : 380
COc1cnc(-c2nn(Cc3c(F)cc(C#N)cc3F)c3ccccc23)nc1Nc1ccncc1 [Example 2-46-1] : 900
CCOc1cc(F)c(Cn2nc(-c3ncc(OC[C@@H]4CCC(=O)N4)c(Nc4ccncc4)n3)c3ccccc32)c(F)c1 [Example 4-22] : 9500
CCOc1cc(F)c(Cn2nc(-c3ncc(OC[C@H]4CCC(=O)N4)c(Nc4ccncc4)n3)c3ccccc32)c(F)c1 [Example 4-19] : 10000
COc1cnc(-c2nn(Cc3c(F)c(F)c(OC)c(F)c3F)c3ccccc23)nc1Nc1ccncc1 [Example 2-24-1] : 1500
COc1cnc(-c2nn(Cc3c(Cl)cccc3Cl)c3ccccc23)nc1Nc1ccncc1 [Example 2-9-1] : 10000
CCOc1cc(F)c(Cn2nc(-c3ncc(OCCN(C)C)c(Nc4ccncc4)n3)c3ccccc32)c(F)c1 [Example 4-8] : 760
COc1cnc(-c2nn(Cc3c(F)cc(Br)cc3F)c3ccccc23)nc1Nc1ccncc1 [Example 2-12-1] : 1400
C/C=C/c1cc(F)c(Cn2nc(-c3ncc(OC)c(Nc4ccncc4)n3)c3ccccc32)c(F)c1 [Example 6-2] : 1200
OCC1(COc2cnc(-c3nn(Cc4ccccc4F)c4ccccc34)nc2Nc2ccncc2)COC1 [Example 4-2-1] : 9900

For the next question, use this compound.
Input line: So what's the measured IC50 for this one? OCC(O)COc1cnc(-c2nn(Cc3ccccc3F)c3ccccc23)nc1Nc1ccncc1 (centres unmarked) [Example 12-1]
Output line: 10000
